# Test system: LOX IMVI melanoma
# Assay Summary: NCI tumour cell line growth inhibition, 48 h
Listing: TGI of selected compounds

### Prompt Would you kindly share the measured TGI for `CCOc1ccc(/C=C/c2cc(OC)c(OC)c(OC)c2)cc1` ?
### Response > 100 µM

---
### Prompt Entry `O=C(Oc1c(Cl)cc(C2(c3cc(Cl)c(OC(=O)c4ccccc4)c(Cl)c3)CCCCC2)cc1Cl)c1ccccc1` has what TGI?
### Response 29.1 µM

### Prompt Please report the recorded TGI for `COc1cc(CNCCN2C(=O)c3ccc4c5c(ccc(c35)C2=O)C(=O)N(CCNCc2cc(OC)c(OC)c(OC)c2)C4=O)cc(OC)c1OC` .
### Response 0.421 µM
